- Test system: HCV replicon
- experimentSummary: HCV replicon assay: HCV RNA by Q-RT-PCR, 4 days exposure
- Format: cell-based, hepatitis C virus (HCV)
- cond: Hepatitis C virus, 96 h; 10 μM; corrected for rRNA; read-out: Corrected HCV RNA log10 reduction at 10 μM
Decision: log reduction at 10 µM >= 0.2 yields Criterion met, all other cases yield Criterion not met.

Answered examples (4):
Nc1ccn([C@@H]2C=C(CO)[C@@H](O)[C@H]2O)c(=O)n1
Criterion met
NC(=O)c1ncn([C@@H]2O[C@H](CO)[C@@H](O)[C@H]2O)n1
Criterion not met
NC(=O)NO [Hydroxyurea]
Criterion not met
O=c1cnn([C@@H]2O[C@H](CO)[C@@H](O)[C@H]2O)c(=O)[nH]1
Criterion not met

Okay, now this compound:
Dear colleague, could you confirm whether Cc1c(-c2ccc(-c3ccccc3F)cc2)nc2ccc(F)cc2c1C(=O)O has log reduction at 10 µM at or above 0.2?
Criterion not met

----------
- Tested on: Huh-7 cells
- experimentSummary: Cellular rRNA levels / cytotoxicity in HCV replicon cells
- cond: 100 μM; 4 days; HCV replicon transfected Huh-7 cells
- Description: In a typical setting, a compound might reduce both the host RNA polymerase activity and the replicon-encoded polymerase activity. Therefore, quantification of rRNA (or any other host RNA polymerase I product) or beta-actin mRNA (or any other host RNA polymerase II) and comparison with RNA levels of the no-drug control is a relative measurement of the effect of the test compound on host RNA polymerases. […]
measuredMetric: log10 RNA reduction at 100 μM, rRNA (log10)
One number for each entry, in log10.

Below, 8 molecules whose answers are already recorded.
O=c1cnn([C@@H]2O[C@H](CO)[C@@H](O)[C@H]2O)c(=S)[nH]1 [2-thio-6-azauridine]
−0.02
Nc1ccn([C@@H]2C=C(CO)[C@@H](O)[C@H]2O)c(=O)n1 [CPE-C, cyclopentenylcytosine]
1.21
O=c1[nH]c(=O)n([C@H]2C[C@H](O)[C@@H](CO)O2)cc1F [2′-deoxy-5-fluorouridine]
0.73
NC(=O)c1ncn([C@@H]2O[C@H](CO)[C@@H](O)[C@H]2O)n1 [Ribavirin]
0.91
O=c1cnn([C@@H]2O[C@H](CO)[C@@H](O)[C@H]2O)c(=O)[nH]1 [6-azauridine]
0.61
CC(=O)N(O)CCCCCNC(=O)CCC(=O)N(O)CCCCCNC(=O)CCC(=O)N(O)CCCCCN [Deferoxamine]
0.92
COc1c(C)c2c(c(O)c1C/C=C(\C)CCC(=O)O)C(=O)OC2 [Mycophenolic acid]
1.09
O=C(O)C[C@H](NC(=O)CP(=O)(O)O)C(=O)O [PALA, N-(Phosphonoacetyl)-L-aspartate]
0.48

// each listed molecule needs a value for log10 RNA reduction at 100 μM, rRNA
1. NC(=O)c1[nH]nc([C@@H]2O[C@H](CO)[C@@H](O)[C@H]2O)c1O [PZF, pyrazofurin]
2. NC(=O)c1ncn([C@@H]2O[C@H](CO)[C@@H](O)[C@H]2O)c1O [Mizoribine]
3. Nc1n[nH]c(N)n1 [Guanazole]

1: 0.42; 2: 0.21; 3: 0.07

// each listed molecule needs a value for log10 RNA reduction at 100 μM, rRNA
1. O=C1C(O)=C(CC=C(Cl)Cl)C(=O)c2ccccc21 [Dichloroallyl lawsone (NSC-126771), Dichloroallyl lawsone]
2. CN(Cc1cnc2nc(N)nc(N)c2n1)c1ccc(C(=O)N[C@@H](CCC(=O)O)C(=O)O)cc1 [Methotrexate]
3. COc1c(C)c2c(c(O)c1CCOP(=O)(O)CP(=O)(O)OC[C@H]1O[C@@H](n3cnc4c(N)ncnc43)[C@H](O)[C@@H]1O)C(=O)OC2 [C2-MAD]
4. Nc1ccn(C2OC(CO)C(O)C2=CF)c(=O)n1 (stereo not drawn) [Tezacytabine]
5. NC(=O)NO [Hydroxyurea]
6. Cc1c(-c2ccc(-c3ccccc3F)cc2)nc2ccc(F)cc2c1C(=O)O [Brequinar (NSC-368390), Brequinar]

1: 2.13; 2: 0.07; 3: 1.00; 4: 1.78; 5: 0.25; 6: 0.29

So what does the record say about log10 RNA reduction at 100 μM, rRNA for NC(=O)c1csc([C@@H]2O[C@H](CO)[C@@H](O)[C@H]2O)n1 [Tiazofurin] ?
0.99
